target: pERK1/2 (Thr202/Tyr204), NCI-1H441 (KRAS G12V) (Homo sapiens, UniProt P01116, G12V); construct: pERK1/2 HTRF read-out; assay: Assay of intracellular pERK1/2 (Thr202/Tyr204) phosphorylation in NCI-H441 cells (KRAS G12V); type: cell-based; conditions: pERK1/2, 2 days, read-out: NCI-H441 (KRAS G12V) IC50
Sequence (P01116 1-188 isoform P01116-2 G12V): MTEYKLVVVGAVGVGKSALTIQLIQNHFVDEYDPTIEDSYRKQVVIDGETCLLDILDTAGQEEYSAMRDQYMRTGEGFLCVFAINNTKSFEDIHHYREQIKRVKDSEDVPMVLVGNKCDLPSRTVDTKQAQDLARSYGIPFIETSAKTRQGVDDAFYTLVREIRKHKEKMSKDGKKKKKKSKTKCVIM
READOUT_TYPE: IC50 (nM)
Give the value in nM but do not write nM after it.

INSERT INTO assay_data (compound, test_result) VALUES
  ('[2H]C1([2H])CN(C(C)c2cccnc2N)c2nc(OC[C@@]34CCCN3C[C@H](F)C4)nc3c(F)c(-c4cc(N)cc(C)c4C(F)(F)F)nc(c23)O1 (stereo partly shown) [Compound 140]', 0.9),
  ('CC(c1cccnc1N)N1CCOc2nc(-c3cc(O)cc(Cl)c3C3CC3)c(F)c3nc(OC[C@@H]4CC(F)(F)CN4C)nc1c23 (single isomer, unassigned) [Compound 55]', 511),
  ('CC(c1cccnc1N)N1c2nc(OC[C@@]34CCCN3C[C@H](F)C4)nc3c(F)c(-c4c5c(cc6[nH]ncc46)CCC5=O)nc(c23)OC[C@@H]1C (single isomer, unassigned)', 25),
  ('Cc1c(F)c(N)cc(-c2nc3c4c(nc(OC[C@@]56CCCN5C/C(=C\F)C6)nc4c2F)N(C(C)c2cccnc2N)CCO3)c1C(F)(F)F (stereo partly shown)', 0.5);

Ask | Given Cc1c(C(F)(F)F)c(-c2nc3c4c(nc(OCC5(CN(C)C6CC6)CC5)nc4c2F)N(C(C)c2cccnc2N)[C@@H](C)CO3)c2cn[nH]c2c1F (stereo partly shown) , state its recorded IC50.
Reply | 4

Ask | Using the record for Cc1c(C(F)(F)F)c(-c2nc3c4c(nc(OCC5(CN(C)CCO)CC5)nc4c2F)N(C(C)c2cccnc2N)[C@@H](C)CO3)c2cn[nH]c2c1F (stereo partly shown) , report its IC50.
Reply | 2

Ask | Given CCC(c1cccnc1N)N1CCOc2nc(-c3cc(N)c(F)c(F)c3C(F)(F)F)c(F)c3nc(OC[C@@]45CCCN4C[C@H](F)C5)nc1c23 (single isomer, unassigned) [Compound 216] , state its recorded IC50.
Reply | 2

Ask | What measured IC50 goes with [2H]C([2H])(Oc1nc2c3c(nc(-c4cc(N)cc(C)c4C(F)(F)F)c(F)c3n1)OCCN2C(C)c1cccnc1N)[C@@H]1C[C@@H](F)CN1C([2H])([2H])[2H] (single isomer, unassigned) [Compound 133] ?
Reply | 10

* * *

Below: a set of entries, each annotated with reported pIC50.
molecular target: pERK1/2 (Thr202/Tyr204), NCI-1H441 (KRAS G12V) (Homo sapiens, UniProt P01116, G12V); construct: pERK1/2 HTRF read-out; assay: Assay of intracellular pERK1/2 (Thr202/Tyr204) phosphorylation in NCI-H441 cells (KRAS G12V); type: cell-based; settings: pERK1/2, 2 days, read-out: NCI-H441 (KRAS G12V) IC50
Keep in mind that pIC50 stands for -log10 of concentration in molar terms.

Recorded results for 3 molecules are shown here.
INSERT INTO results (molecule, readout_type, test_result) VALUES
  ('[2H]C([2H])(Oc1nc2c3c(nc(-c4cc(N)c(F)c(C)c4C(F)(F)F)c(F)c3n1)OCCN2C(C)c1cccnc1N)[C@@H]1CCC([2H])([2H])N1C([2H])([2H])[2H] (some centres unmarked) [Compound 104]', 'pIC50', 8.52),
  ('Cc1cc2[nH]ncc2c(-c2nc3c4c(nc(OC[C@@H]5CCN5CC(F)F)nc4c2F)N(C(C)c2cccnc2N)CCO3)c1C (some centres unmarked) [Compound 14]', 'pIC50', 7.44),
  ('Cc1ccc2[nH]nc(C)c2c1-c1nc2c3c(nc(OC[C@@]45CCCN4C[C@H](F)C5)nc3c1F)N(C(C)c1cccnc1N)[C@@H](C)CO2 (some centres unmarked) [Compound 319]', 'pIC50', 9.00);

Next molecule, pIC50 to be filled in.
Ask | Could you tell me which pIC50 is on file for Cc1c(F)c(N)cc(-c2nc3c4c(nc(OC[C@@]56CCCN5C[C@H](F)C6)nc4c2F)N(C(C)c2cccnc2N)C[C@@H](C)O3)c1C(F)(F)F (single isomer, unassigned) [Compound 248] ?
Reply | 9.00
